assay: BSK_LPS_PGE2: BioMAP Diversity Plus: LPS Assay for Prostaglandin E2 (PGE2) Biomarker Activity (AID 2283082); conditions: primary human HUVEC with PBMC; actives raise or lower the signal
The source made the active and inactive calls. How the source made its calls: active means hit-call score of the fitted dose curve at least 0.9, where 1 is the maximum; inactive means score below 0.9.
# valid calls are active, inactive; nothing else

[in] Assay result, entry C=CC(C)(O)CCC=C(C)C (stereo unspecified) — outcome?
[out] inactive

[in] Assay result, entry `COc1cc(Cl)c(OC)cc1N` — outcome?
[out] inactive

[in] Assay result, entry `CCCCCCCCCCCCCCCC(=O)OC/C=C(C)/C=C/C=C(C)/C=C/C1=C(C)CCCC1(C)C` — outcome?
[out] inactive

[in] Assay result, entry C1=CC2C3C=CC(C3)C2C1 (stereo unspecified) — outcome?
[out] inactive

[in] Assay result, entry CC(CN=Cc1ccccc1O)N=Cc1ccccc1O (stereo unspecified) — outcome?
[out] inactive

[in] Assay result, entry `C[C@@H]1CCN(C(=O)[C@H](CCCN=C(N)N)NS(=O)(=O)c2cccc3c2NC[C@H](C)C3)[C@@H](C(=O)O)C1` — outcome?
[out] inactive

[in] Assay result, entry `O=C(Nc1ccc2c(O)c(N=Nc3ccc(N=Nc4ccc(S(=O)(=O)O)cc4)cc3)c(S(=O)(=O)O)cc2c1)c1ccccc1` — outcome?
[out] inactive

[in] Assay result, entry `CC=Cc1ccc(OCC)c(O)c1` — outcome?
[out] active

[in] Assay result, entry CC(C=O)Cc1ccc(C(C)(C)C)cc1 (stereo unspecified) — outcome?
[out] inactive

[in] Assay result, entry `CC1(C)CCC[C@]2(C)[C@H]3CCO[C@]3(C)CC[C@@H]12` — outcome?
[out] inactive

[in] Assay result, entry `CC(C)(N=C=O)c1cccc(C(C)(C)N=C=O)c1` — outcome?
[out] inactive

###

experiment: ACEA_AR_antagonist_AUC_viability: ACEA Biosciences xCELLigence Real-Time Cell Analysis on Androgen Receptor Antagonism for Viability (AID 2283776);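 further: 22Rv1 human prostate cancer cells growing on impedance electrode plates; area under impedance growth curve at 80 h after dosing as viability; hits lower the growth signal relative to DMSO meaning cytotoxicity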
Records with an inconclusive call do not appear. The source made the active and inactive calls. Rule for the calls: active = hit-call score of the fitted dose curve at least 0.9, where 1 is the maximum; inconclusive = response in the unintended direction; inactive = score below 0.9.
# valid calls are class 1 = active, class 0 = inactive; nothing else

[in] Assay result, entry CCCCCCCC(=O)OCC(O)CO (stereo not drawn) — outcome?
[out] class 0

[in] Assay result, entry `BrCc1cccc(Oc2ccccc2)c1` — outcome?
[out] class 0

[in] Assay result, entry `Nc1ccc(N)c2c1C(=O)c1ccccc1C2=O` — outcome?
[out] class 1

[in] Assay result, entry `CC(C)CCCCCCCCCCCCCCC(=O)O` — outcome?
[out] class 0

[in] Assay result, entry `Nc1ccc2cc(S(=O)(=O)O)cc(O)c2c1N=Nc1ccccc1C(F)(F)F` — outcome?
[out] class 0

[in] Assay result, entry `Cc1ccc(S(=O)(=O)Oc2ccc(N=Nc3ccc(-c4ccc(N=Nc5c(O)ccc6cc(S(=O)(=O)O)cc(S(=O)(=O)O)c56)c(C)c4)cc3C)cc2)cc1` — outcome?
[out] class 1

[in] Assay result, entry `CCc1cc(Cc2cc(CC)cc(C(C)(C)C)c2O)c(O)c(C(C)(C)C)c1` — outcome?
[out] class 1

[in] Assay result, entry `OCCc1ccccc1` — outcome?
[out] class 0

[in] Assay result, entry `CCCCCCCCc1ccc(S(=O)(=O)O)cc1` — outcome?
[out] class 0

[in] Assay result, entry `CCCCCC(C)=O` — outcome?
[out] class 0

[in] Assay result, entry Clc1ccc(C(c2ccccc2Cl)C(Cl)Cl)cc1 (stereo not drawn) — outcome?
[out] class 0

[in] Assay result, entry `CS(C)=O` — outcome?
[out] class 0

[in] Assay result, entry CCCCCCCCCCCCCC(=O)OCC(O)CO (stereo not drawn) — outcome?
[out] class 0

[in] Assay result, entry `OCc1cccc(Oc2ccccc2)c1` — outcome?
[out] class 0

[in] Assay result, entry `O=[N+]([O-])c1ccc(O)cc1C(F)(F)F` — outcome?
[out] class 1

[in] Assay result, entry `COS(=O)(=O)O` — outcome?
[out] class 0

[in] Assay result, entry `Cc1cc(=O)oc2cc(N(C)C)ccc12` — outcome?
[out] class 1

[in] Assay result, entry C#CC(C)(O)CC(C)C (stereo not drawn) — outcome?
[out] class 0

###

target: human Peroxisome Proliferator-activated Receptor alpha (PPARa), PPARA (gene 5465); assay: ATG_PPARa_TRANS: Attagene TRANS-FACTORIAL HepG2 Assay for human Peroxisome Proliferator-activated Receptor alpha (PPARa) (AID 2283001)
Results filed as inconclusive are left out. Active and inactive are the calls of the source. Rule for the calls: active = hit-call score of the fitted dose curve at least 0.9, where 1 is the maximum; inconclusive = response in the unintended direction; inactive = score below 0.9.
Measured parameter: outcome

CC(C)c1ccccc1O = inactive
CCCC1O[C@@H]2C[C@H]3[C@@H]4CCC5=CC(=O)C=C[C@]5(C)[C@H]4[C@@H](O)C[C@]3(C)[C@]2(C(=O)CO)O1 (stereo partly drawn) = inactive
Cc1ccc(S(N)(=O)=O)cc1 = inactive

###

assay: ATG_GATA_CIS: Attagene CIS-FACTORIAL HepG2 Assay for human GATA Binding Protein (AID 2282944); details: HepG2 GATA cis-element reporter, Attagene multiplex mRNA; actives raise or lower the signal
Calls of active or inactive are those of the source. Rule for the calls: active = hit-call score of the fitted dose curve at least 0.9, where 1 is the maximum; inactive = score below 0.9.
# valid calls are Y (active), N (inactive); nothing else

A selection of reference data follows.
CC/C=C\CCOC(=O)CC = N
COC(CC(C)CCCC(C)(C)O)OC (centres undefined) = N
O=C1OC(=O)c2c(Cl)c(Cl)c(Cl)c(Cl)c21 = N
O=C(Nc1ccc2c(O)c(N=Nc3ccc(N=Nc4ccc(S(=O)(=O)O)cc4)cc3)c(S(=O)(=O)O)cc2c1)c1ccccc1 = N
CC(C)Nc1nc(N)nc(Cl)n1 = N
C=C(C)CNCC = N
Nc1ccc2cc(S(=O)(=O)O)cc(O)c2c1N=Nc1ccccc1C(F)(F)F = N
Cc1ccc(S(=O)(=O)Oc2ccc(N=Nc3ccc(-c4ccc(N=Nc5c(O)ccc6cc(S(=O)(=O)O)cc(S(=O)(=O)O)c56)c(C)c4)cc3C)cc2)cc1 = N

[in] Assay result, entry `CCCCSCCCC` — outcome?
[out] N

[in] Assay result, entry `CN(C)c1ccncc1` — outcome?
[out] N

[in] Assay result, entry `COC(=O)Nc1ccc(Cl)c(Cl)c1` — outcome?
[out] N

[in] Assay result, entry `IC(I)I` — outcome?
[out] N

[in] Assay result, entry `CCCCCC(C=O)=Cc1ccccc1` — outcome?
[out] N

[in] Assay result, entry `CCOc1ccc(NC(=O)CC(C)=O)cc1` — outcome?
[out] N

[in] Assay result, entry `CC(C)CCCCCCc1ccc(OCCOCCO)cc1` — outcome?
[out] N

[in] Assay result, entry `COc1ccc(CCC(C)=O)cc1` — outcome?
[out] N

[in] Assay result, entry `CCN(CC)C(=O)N(CC)CC` — outcome?
[out] N

[in] Assay result, entry `C=C(C)[C@@H]1CC=C(C)C(=O)C1` — outcome?
[out] N

[in] Assay result, entry `COc1ccc(CCO)cc1` — outcome?
[out] N

###

test: ATG_PXRE_CIS: Attagene CIS-FACTORIAL HepG2 Assay for human Pregnane X Receptor Element (PXRE) (AID 2282957); details: HepG2 Attagene CIS-FACTORIAL PXRE reporter, mRNA; actives raise or lower the signal
The source made the active and inactive calls. How the source made its calls: active means hit-call score of the fitted dose curve at least 0.9, where 1 is the maximum; inactive means score below 0.9.
Measured parameter: AC50

Solved entries:
Nc1ccc2cc(S(=O)(=O)O)cc(O)c2c1N=Nc1ccccc1C(F)(F)F = 38.5 µM (active)
Nc1ccc2c(O)cc(S(=O)(=O)O)cc2c1 = inactive
N#Cc1cscn1 = 71.7 µM (active)
O=C(O)c1cc(C(=O)O)cc([N+](=O)[O-])c1 = inactive

[in] Check the records and state AC50 for `C=C(C)[C@H]1CC=C(C)C(=O)C1`
[out] 27.9 µM (active)

[in] Check the records and state AC50 for `O=C1OC(=O)c2c(Cl)c(Cl)c(Cl)c(Cl)c21`
[out] inactive

[in] Check the records and state AC50 for `CCCN(CCC)S(=O)(=O)c1ccc(C(=O)O)cc1`
[out] 27.3 µM (active)

[in] Check the records and state AC50 for CC(Oc1cc(Cl)ccc1Cl)C(=O)O (stereo not drawn)
[out] 82.1 µM (active)

[in] Check the records and state AC50 for C=CC(C)(O)CCC=C(C)C (stereo not drawn)
[out] 46.9 µM (active)

[in] Check the records and state AC50 for `O=C(O)c1ccc(O)cc1`
[out] inactive

###

experiment: ATG_PPRE_CIS: Attagene CIS-FACTORIAL HepG2 Assay for human Peroxisome Proliferator-activated Response Element (PPRE) (AID 2282958); conditions: HepG2 PPRE cis-element reporter, Attagene transcription factor profiling; actives raise or lower the signal
The source made the active and inactive calls. The calls were made as follows: active = hit-call score of the fitted dose curve at least 0.9, where 1 is the maximum; inactive = score below 0.9.
# valid calls are True = active, False = inactive; nothing else

CC1=C(Br)C(=O)C(Br)=C/C1=C(/c1ccccc1S(=O)(=O)O)c1cc(Br)c(O)c(Br)c1C = False

[in] Assay result, entry `CCCCCCCCC=CCCCCCCCC1=NCCN1CCO` — outcome?
[out] True

[in] Assay result, entry `CC(=O)Nc1ccc(C(=O)CCl)cc1` — outcome?
[out] False

[in] Assay result, entry `N#Cc1ccc(CC(=O)c2cccc(C(F)(F)F)c2)cc1` — outcome?
[out] False

[in] Assay result, entry `CCCCCCCC/C=C\CCCCCCCC(=O)OCC` — outcome?
[out] False

[in] Assay result, entry CCC(Cl)C(Cl)C(Cl)CC(Cl)C(Cl)C(C)Cl (configuration not stated) — outcome?
[out] False
